Test system: W2
Assay Text: qHTS profiling for inhibitors of Plasmodium falciparum proliferation (AID 504749); note: nearly all actives have a fitted effect of over 60% in size
Test Conditions: P. falciparum in erythrocytes, SYBR Green DNA, 72 h; series mostly up to 28.7 µM
Records with an inconclusive call do not appear. Activity calls are given as the source filed them. Calls come from the whole dose curve; as a rule, active = well fitted inhibition curve with a large enough effect; inconclusive = small, poorly fitted or top-dose-only effect; inactive = flat fitted curve, though single readings scatter.
A correct response names exactly one class from class 1 (active), class 0 (inactive)

Molecule	Experimental Target	Label Class
COc1ccc(Cc2nccc3cc(OC)c(OC)cc23)cc1OC	W2	class 0
O=C1Nc2ccc(Cl)cc2C(C#CC2CC2)(C(F)(F)F)O1 (stereo not drawn)	W2	class 0
O=C1NCC2(CCN(CCc3ccccc3)CC2)O1	W2	class 0
O=c1[nH]cnc2c1ncn2[C@H]1CC[C@@H](CO)O1	W2	class 1
C[N+](C)(C)CCCCCC[N+](C)(C)C	W2	class 0
COCCCCC(=NOCCN)c1ccc(C(F)(F)F)cc1	W2	class 1

Could you kindly confirm the outcome this assay logged for CCCCCN(C)CCC(O)(P(=O)(O)O)P(=O)(O)O ?
class 0

How did this test come out for CCCNC(=O)NS(=O)(=O)c1ccc(Cl)cc1 ?
class 0

Record lookup: outcome of this test for CC(=O)N[C@@H](CS)C(=O)O ?
class 0

// return assay outcome for O=C(O)c1cc(-c2ccccc2)nc2ccccc12
class 0

Per the records of this test, what outcome belongs to Cc1cnc(C(=O)O)c[n+]1[O-] ?
class 0

Entry NC(N)=Nc1nc(CSCC/C(N)=N/S(N)(=O)=O)cs1 : call = ?
class 0

Hello, I am checking results. What call was entered for O=C1NC(=O)C(c2ccccc2)(c2ccccc2)N1 ?
class 0

====

Assay Text: Quantitative High-Throughput drug screen in 47 multiple myeloma cell lines against the NCATS MIPE library collection: XG1_PLB cell viability assay (AID 1919866); note: nearly all actives have a fitted effect of over 35% in size; note: potency is the fitted concentration of half-maximal effect
Test Conditions: CellTiter-Glo ATP, 48 h; series mostly up to 45.8 µM
Results filed as inconclusive are left out. Active and inactive are the calls of the source. The call rests on the fitted dose curve; in most records, active means well fitted cell-killing curve with a large enough effect; inconclusive means small, poorly fitted or top-dose-only effect, or effect the other way; inactive means no such curve, though single readings can be large or run the other way.
Readout Label: Potency

Worked examples follow.
COc1cc2c(cc1OC)CN(CCc1ccc(NC(=O)c3cc(OC)c(OC)cc3NC(=O)c3cnc4ccccc4c3)cc1)CC2 20.9 µM (active)
CN1CCN(CCOc2cc(OC3CCOCC3)c3c(Nc4c(Cl)ccc5c4OCO5)ncnc3c2)CC1 18.7 µM (active)
CCn1cc(C(=O)O)c(=O)c2ccc(C)nc21 inactive
Cc1cnc(C(=O)O)c[n+]1[O-] inactive
CC(C)(C(=O)NCC(F)(F)C(F)(F)F)C(=O)N[C@@H]1C(=O)Nc2ccccc2-c2ccccc21 10.5 µM (active)

Look up Potency of Cc1ccc(/C=N/NC(=O)c2ccccc2Oc2ccccc2)o1 and report it.
11.8 µM (active)

Hello, please tell me recorded Potency for this one: COc1cc(NC(=O)c2ccc(-c3ccc(Cl)cc3)o2)cc(OC)c1
3.32 µM (active)

Item COc1cc2nc(-c3ccc(N4CCN(C)CC4)cc3)nc(NCCN3CCOCC3)c2cc1OC : provide Potency
0.0372 µM (active)

Output measured Potency for this item: Oc1ccc(C2CCN(c3ccnc4ccccc34)CC2)cc1O
0.833 µM (active)

Please list Potency recorded for the compound O=C(Nc1cccc(Br)c1)c1cccc(S(=O)(=O)N2CCCCCC2)c1
16.6 µM (active)

====

Assay Text: Quantitative High-Throughput drug screen in 47 multiple myeloma cell lines against the NCATS MIPE library collection: KMS12PE_JCRB cell viability assay (AID 1918972); note: nearly all actives have a fitted effect of over 30% in size;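 for viability: 100% = DMSO only wells and 0% = wells with media alone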
Test Conditions: KMS12PE myeloma viability, CellTiter-Glo ATP, 48 h; series mostly up to 45.8 µM
Inconclusive results are not listed. Calls of active or inactive are those of the source. Calls follow the shape of the dose curve; as a rule, active = well fitted cell-killing curve with a large enough effect; inconclusive = small, poorly fitted or top-dose-only effect, or effect the other way; inactive = no such curve, though single readings can be large or run the other way.
Log the outcome using a class from y (active), n (inactive)

Illustrative cases are given below, each with its answer.
C[N+](C)(C)CC(=O)O n
CCOc1ccc(Nc2nc(-c3c(C)nc4ccccn34)cs2)cc1 y
Nc1ncnc2c1ncn2[C@@H]1O[C@H](CO)C[C@@H]1O n
CCn1cc(C(=O)O)c(=O)c2ccc(C)nc21 n
CC(=NNC(=S)N1CCC1)c1ccccn1 y

Here's the next entry for you.
Fill in: this test's call for O=C(NC1CCOCC1)c1ccc(-c2cc(-c3cn[nH]c3-c3ccccn3)ccn2)cc1 is ___
n
